Assay: reversal of MRP1-mediated doxorubicin resistance, pilot screen, H69AR cells, doxorubicin co-treatment (AID 601)
Conditions: H69AR cells, CellTiter-Glo, 72 h; compound alone cytotoxicity; at 10 µM
measured parameter: viability (%)
Give bare numbers, in %.

compound: Cc1nn(C(=O)c2ccccc2)c2c1C(=O)CC(C)(C)C2
endpoint result: 94.7

Value sought for every listed compound: viability.
1. CC1CCCC(C)N1C(=O)CSc1nnc(-c2cccs2)o1 (stereo unspecified)
2. CCc1cccc2c3c([nH]c12)C(CC)(CC(=O)O)OCC3 (stereo unspecified)
3. Cc1onc(-c2ccccc2Cl)c1C(=O)NCCn1c(C)cc2ccccc21
4. O=C(OC1CCc2ccccc2C1=O)c1ccccc1O (stereo unspecified)
5. CCOC(=O)c1c(N)nn(C(=O)C(C)C)c1-c1ccccc1
6. CCOC(=O)C1(CC)NC(c2cccc(F)c2)C2C(=O)N(CC)C(=O)C21 (stereo unspecified)
7. CCOc1ccc(OCc2cccc(C(=O)N3CCCC3)c2)cc1

Reply:
1. 95.1
2. 100
3. 83.3
4. 78.6
5. 109
6. 97.6
7. 92.9

Value sought for every listed compound: viability.
1. COc1cc([C@@H]2c3cc4c(cc3[C@H](O)[C@H]3COC(=O)[C@H]23)OCO4)cc(OC)c1OC
2. CCOC(=O)C1CCCn2c1nc1sc3c(c1c2=O)CCCC3 (stereo unspecified)
3. COc1cc(C)nc(N2CCCC(C(=O)Nc3cccc(Cl)c3Cl)C2)n1 (stereo unspecified)

Reply:
1. 31.2
2. 89.1
3. 56.4

###

Assay: growth suppression of yeast trafficking mutant, preliminary HTS, modulators of trafficking downstream of Golgi apparatus project, 1536-format plate, OD 615 nm (AID 637)
Conditions: yeast transport mutant growth, absorbance 615 nm, 18 h; stronger effect = higher value
measured parameter: inhibition (%)
One number for each entry, in %.

Example entries and their recorded answers appear below.
compound: Cc1onc(-c2ccccc2)c1C(=O)N1CCN(C(=O)c2ccco2)CC1
endpoint result: 5.32
//
compound: COc1ccc(/C=N/n2cnnc2SCc2ccc(OC)cc2)cc1
endpoint result: 4
//
compound: Clc1cccc(Cl)c1COc1ccncc1
endpoint result: 27.4
//
compound: COC(=O)C1=C(C)N(Cc2ccco2)C(=O)C1
endpoint result: 5.82

Value sought for every listed compound: inhibition.
1. COc1ccc2c(c1)CCc1c(C(=O)N3CC4(C)CC3CC(C)(C)C4)noc1-2 (centres undefined)
2. CC(=O)N=c1sc(S(N)(=O)=O)nn1C

Reply:
-3.02
3.17

Value sought for every listed compound: inhibition.
1. CCOCCCNC(=O)c1cc2sc(Cl)cc2n1CC
2. COc1ccc2c(c1)c1c(n2C(C)=O)C(OC(C)=O)=NCC1

Reply:
-0.95
5.71

Value sought for every listed compound: inhibition.
1. CCOc1ccccc1C(=O)NCC(=O)OCC(=O)N1C(C)CCCC1C (centres undefined)
2. COc1ccccc1C1/C(=C(/O)c2ccccc2)C(=O)C(=O)N1CC(C)C (centres undefined)
3. CCOc1cc(C2C(C#N)=C(N)Oc3n[nH]c(CC)c32)ccc1OCCN1CCOCC1 (centres undefined)
4. CCOC(=O)Cc1cc(=O)n2[nH]c(C)c(-c3ccc(OC)cc3)c2n1
5. O=S1(=O)C=C(Oc2ccc(F)cc2)c2ccccc21
6. CC(C)CN(C(=O)c1ccc(=O)n(C)n1)c1nc2ccccc2s1
7. O=C(CN1C(=O)COc2ccccc21)N(Cc1cccnc1)Cc1ccccc1F
8. C=CCn1c(SCC(=O)NCC2CCCO2)nc2scc(-c3ccco3)c2c1=O (centres undefined)

Reply:
[-3.02, 5.24, 0.32, -1, 1.27, 1.09, 0.55, 2.58]

Value sought for every listed compound: inhibition.
1. O=C(CN1CCC(c2nc3ccccc3s2)CC1)NCc1cccs1
2. CCOc1ccccc1N1CCN(C(=O)c2ccncc2)CC1
3. CC1=C(C(=O)NCc2ccccn2)C2(CCC(C)CC2)OC1=O (centres undefined)
4. CSC(=O)CC(=O)NC(=O)c1ccccc1
5. CC(=O)Nc1ccccc1OCC(=O)c1cc(C)n(Cc2cccs2)c1C
6. Cc1[nH]nc2c1C(CCc1ccccc1)C(C#N)=C(N)O2 (centres undefined)
7. Nn1c(SCC(=O)Nc2ccc(S(=O)(=O)N3CCCC3)cc2)nnc1C(F)(F)F
8. Cc1nnc(SCC(=O)NCc2ccc3c(c2)OCO3)s1

Reply:
6.72
-9.34
-1.97
5.74
-3.45
15.8
3.11
5.82
